- Assayed system: β5 subunit of the human constitutive proteasome (CPS) (Homo sapiens)
- Experimental protocol: β5 inhibition assay, human constitutive proteasome (Suc-LLVY-AMC)
- Measurement context: IC50 class, Suc-LLVY-AMC substrate
IC50 by entry:
Observed property: IC50

Compound | Measured value
CC(=O)N[C@H]1CC(=O)N(C)CCCCOc2ccc(C)c(c2)CNC(=O)[C@H](CCc2ccccc2)NC1=O [Compound 296] | 500 to 1000 nM
Cc1ccc2cc1CNC(=O)[C@H](CCc1ccccc1)NC(=O)[C@@H](NC(=O)C1CC3CCC(C1)N3C(=O)OC(C)(C)C)CC(=O)N1CCCC(CCO2)C1 (stereo partly drawn) [Compound 605] | < 100 nM
Cc1ccc2cc1CNC(=O)[C@H](CCc1ccccc1)NC(=O)[C@@H](NC(=O)C(C)c1ccc(N)cc1)CC(=O)N1CCCC(CCO2)C1 (stereo partly drawn) [Compound 309] | < 100 nM
COc1cccc(CC(=O)N[C@H]2CC(=O)N3CCCC(CCOc4ccc(C)c(c4)CNC(=O)[C@H](CCc4ccccc4)NC2=O)C3)c1 (stereo partly drawn) [Compound 85] | < 100 nM
Cc1ccc2cc1CNC(=O)[C@H](CCc1ccccc1)NC(=O)[C@@H](NS(C)(=O)=O)CC(=O)N1CCCC(CCO2)C1 (stereo partly drawn) [Compound 37] | < 100 nM
CC(=O)N[C@H]1CCCC(=O)NCCCCOc2ccc(C)c(c2)CNC(=O)[C@H](CCc2ccccc2)NC1=O [Compound 269] | 1000 to 5000 nM
Cc1ccc2cc1CNC(=O)[C@H](CCc1ccccc1)NC(=O)[C@@H](NC(=O)CCNC(=O)c1cccc(OCC(C)C)c1)CC(=O)N1CCCC(CCO2)C1 (stereo partly drawn) [Compound 651] | < 100 nM
COc1cccc(CCCOCCC(=O)N[C@H]2CC(=O)N3CCCC(CCOc4ccc(C)c(c4)CNC(=O)[C@H](CCc4ccccc4)NC2=O)C3)c1 (stereo partly drawn) [Compound 607] | < 100 nM
Cc1ccc2cc1CNC(=O)[C@H](CCc1ccccc1)NC(=O)[C@@H](NC(=O)CCOCCc1ccccc1)CC(=O)N1CCCC(CCO2)C1 (stereo partly drawn) [Compound 618] | < 100 nM
Cc1ccc2cc1CNC(=O)[C@H](CCc1ccccc1)NC(=O)[C@@H](NC(=O)c1ccc3cc(N)ccc3c1)CC(=O)N1CCCC(CCO2)C1 (stereo partly drawn) [Compound 339] | < 100 nM
Cc1ccc2cc1CNC(=O)[C@H](CCc1ccccc1)NC(=O)[C@@H](NC(=O)CCNCCC1CCCC1)CC(=O)N1CCCC(CCO2)C1 (stereo partly drawn) [Compound 700] | < 100 nM
Cc1ccc2cc1CNC(=O)[C@H](CCc1ccccc1)NC(=O)[C@@H](NC(=O)OCc1ccccc1)CCCCC(=O)N1CC(CCO2)C1 [Compound 353] | < 100 nM
